In this section we review reported IC50 values for a set of binders.
Target: T1, human MAdCAM (on CHO cells) (human, UniProt Q13477)
T1 chain: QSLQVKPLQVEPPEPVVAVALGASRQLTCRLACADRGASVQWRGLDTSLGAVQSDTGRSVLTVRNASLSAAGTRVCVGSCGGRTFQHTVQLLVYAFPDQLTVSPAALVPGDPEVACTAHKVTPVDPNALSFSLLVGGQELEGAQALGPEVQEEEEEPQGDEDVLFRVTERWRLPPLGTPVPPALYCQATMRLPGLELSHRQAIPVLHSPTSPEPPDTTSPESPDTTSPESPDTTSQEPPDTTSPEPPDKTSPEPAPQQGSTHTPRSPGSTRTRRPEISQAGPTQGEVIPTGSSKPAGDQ
Assay: competition, JY cell adhesion to CHO
Report the figure in µg/mL without appending any unit label.

[[record]]
binder = "6.22.2 (antibody, V domains shown) VH: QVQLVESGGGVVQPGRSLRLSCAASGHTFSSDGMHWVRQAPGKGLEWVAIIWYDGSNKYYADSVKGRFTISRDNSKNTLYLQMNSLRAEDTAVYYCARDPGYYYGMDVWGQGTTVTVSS VL: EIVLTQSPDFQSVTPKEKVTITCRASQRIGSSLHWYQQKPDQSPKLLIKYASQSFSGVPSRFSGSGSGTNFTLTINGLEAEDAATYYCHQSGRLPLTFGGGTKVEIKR"
reported_value = 0.573


// switching to the query binder
Output IC50 of 9.8.2 (antibody, V domains shown) VH: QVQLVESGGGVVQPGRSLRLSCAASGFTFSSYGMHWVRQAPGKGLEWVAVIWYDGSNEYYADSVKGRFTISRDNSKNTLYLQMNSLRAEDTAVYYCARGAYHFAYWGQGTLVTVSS VL: DMRVPAQLLGLLLLWLSVAGARCDIQMTQSPSSLSASVGDRVTITCQASQDISNYLNWYQQKPGKAPKLLIYDASNLETGVPSRFSGSGSGTDFTFTISSLQPEDIATYSCQHSDNLSITFGQGTRLEIKR 0.44

src = patent US20050232917
